Data provenance: patent EP0647618A1

assay: physchem; format: physicochemical; conditions: water, 20°C (Table I); read-out: SOLUBILITY in water at 20°C (w/v)
MEASURED QUANTITY: solubility

compound="O=C(CN(CCO)CC(=O)Nc1c(I)c(C(=O)NCC(O)CO)c(I)c(C(=O)NCC(O)CO)c1I)Nc1c(I)c(C(=O)NCC(O)CO)c(I)c(C(=O)NCC(O)CO)c1I (stereo not shown)" obs_value="> 600 mg/mL"

---

assay: Viscosity of aqueous solution at 300 mg I/ml; format: physicochemical; details: 300 mg I/ml (Table II)
Attribute: VISCOSITY mPas (37°C) at 300 mg I/ml
MEASURED QUANTITY: VISCOSITY mPas (37°C) at 300 mg I/ml

compound="O=C(CN(CCO)CC(=O)Nc1c(I)c(C(=O)NC(CO)C(O)CO)c(I)c(C(=O)NC(CO)C(O)CO)c1I)Nc1c(I)c(C(=O)NCCO)c(I)c(C(=O)NCCO)c1I (centres unmarked)" measured_quantity="VISCOSITY mPas (37°C) at 300 mg I/ml" obs_value="8.4 mPas"
compound="O=C(CN(CCO)CC(=O)Nc1c(I)c(C(=O)NCC(O)CO)c(I)c(C(=O)NCC(O)CO)c1I)Nc1c(I)c(C(=O)NCC(O)CO)c(I)c(C(=O)NCC(O)CO)c1I (centres unmarked)" measured_quantity="VISCOSITY mPas (37°C) at 300 mg I/ml" obs_value="9.4 mPas"
compound="CN(C(=O)CN(CCO)CC(=O)N(C)c1c(I)c(C(=O)NC(CO)C(O)CO)c(I)c(C(=O)NC(CO)C(O)CO)c1I)c1c(I)c(C(=O)NCCO)c(I)c(C(=O)NCCO)c1I (centres unmarked)" measured_quantity="VISCOSITY mPas (37°C) at 300 mg I/ml" obs_value="9.5 mPas"
compound="CN(C(=O)CN(CCO)CC(=O)Nc1c(I)c(C(=O)NCC(O)CO)c(I)c(C(=O)NCC(O)CO)c1I)c1c(I)c(C(=O)NCC(O)CO)c(I)c(C(=O)NCC(O)CO)c1I (centres unmarked)" measured_quantity="VISCOSITY mPas (37°C) at 300 mg I/ml" obs_value="10.6 mPas"
compound="CN(C(=O)CN(CCO)CC(=O)Nc1c(I)c(C(=O)NCCO)c(I)c(C(=O)NCCO)c1I)c1c(I)c(C(=O)NC(CO)C(O)CO)c(I)c(C(=O)NC(CO)C(O)CO)c1I (centres unmarked)" measured_quantity="VISCOSITY mPas (37°C) at 300 mg I/ml" obs_value="9.7 mPas"
compound="O=C(CN(CC(=O)Nc1c(I)c(C(=O)NCC(O)CO)c(I)c(C(=O)NCC(O)CO)c1I)CC(O)CO)Nc1c(I)c(C(=O)NCCO)c(I)c(C(=O)NCCO)c1I (centres unmarked)" measured_quantity="VISCOSITY mPas (37°C) at 300 mg I/ml" obs_value="9.5 mPas"
compound="O=C(CN(CC(=O)Nc1c(I)c(C(=O)NCC(O)CO)c(I)c(C(=O)NCC(O)CO)c1I)CC(O)CO)Nc1c(I)c(C(=O)NCC(O)CO)c(I)c(C(=O)NCC(O)CO)c1I (centres unmarked)" measured_quantity="VISCOSITY mPas (37°C) at 300 mg I/ml" obs_value="10.3 mPas"
compound="CN(C(=O)CN(CCO)CC(=O)N(C)c1c(I)c(C(=O)NCC(O)CO)c(I)c(C(=O)NCC(O)CO)c1I)c1c(I)c(C(=O)NCC(O)CO)c(I)c(C(=O)NCC(O)CO)c1I (centres unmarked)" measured_quantity="VISCOSITY mPas (37°C) at 300 mg I/ml" obs_value="9.3 mPas"
